test system: antibodies in sera from SARS patients (sera 1a, 1b, 2, 6, 37, 62, London, SARS-yellow, SARS-green); format: binding, human
Binding of serum 37 to linear peptides of protein E of SARS-CoV Urbani overview
Form: value (number only, do not type unit).

Worked set:
ALRLCAYCCNIVNVS	0.8
VFLLVTLAILTALRL	0.6
LVTLAILTALRLCAY	0.7
TLAILTALRLCAYCC	0.7

Query block: Return reported Binding of serum 37 to linear peptides of protein E of SARS-CoV Urbani; argument: `VLLFLAFVVFLLVTL`
Result block: 0.8

----------
system: antibodies in sera from SARS patients (sera 1a, 1b, 2, 6, 37, 62, London, SARS-yellow, SARS-green); format: binding, human
# maps each entry to its Binding of serum SARS-green to linear peptides of protein E of SARS-CoV Urbani
Form: value (number only, do not type unit).

Query block: Give the measured Binding of serum SARS-green to linear peptides of protein E of SARS-CoV Urbani of `LLVTLAILTALRLCA` .
Result block: 0.4

Query block: Do the same for `LVTLAILTALRLCAY` please
Result block: 0.3

Query block: Then `VLLFLAFVVFLLVTL` ?
Result block: 0.5

Query block: Also `FLLVTLAILTALRLC` ?
Result block: 0.5

Query block: Now consider `AFVVFLLVTLAILTA` .
Result block: 0.4

----------
tested on: control sera (pooled serum of ten healthy LUMC hospital workers; commercial negative donor pooled serum from the Dutch bloodbank); format: binding, human
property: Binding of Control serum Blood-bank to linear peptides
The answer should be a number; do not append a unit.

// known answers, use as guide
SFVSEETGTLIVNSV	0.9
VLLFLAFVVFLLVTL	0.8
LAILTALRLCAYCCN	0.7
TLAILTALRLCAYCC	0.6
LAFVVFLLVTLAILT	0.6

Query block: Query (sequence): `EETGTLIVNSVLLFL` ; field requested: Binding of Control serum Blood-bank to linear peptides
Result block: 0.7

Query block: Moving on to the next sequence: `VSEETGTLIVNSVLL`
Result block: 0.8

Query block: Subsequent entry: `LLVTLAILTALRLCA`
Result block: 0.7

Query block: Now consider `FVSEETGTLIVNSVL` .
Result block: 0.7

----------
We begin with a simple list: items and their reported Binding of serum 2 to looped/cyclic peptides of protein E of SARS-CoV Urbani.
tested on: antibodies in sera from SARS patients (sera 1a, 1b, 2, 6, 37, 62, London, SARS-yellow, SARS-green); assay type: binding, human
Field format: numeric only.

Field: example entries. Status: answers known.
IVNSVLLFLAFVVFL	0.5
LLVTLAILTALRLCA	0.6
TLAILTALRLCAYCC	0.7
AFVVFLLVTLAILTA	0.4

Query block: What does the record list as Binding of serum 2 to looped/cyclic peptides of protein E of SARS-CoV Urbani for `TGTLIVNSVLLFLAF` ?
Result block: 0.4

----------
system: antibodies in sera from SARS patients (sera 1a, 1b, 2, 6, 37, 62, London, SARS-yellow, SARS-green); assay type: binding, human
Listing: Binding of serum London to looped/cyclic peptides of protein E of SARS-CoV Urbani of selected sequences
No unit in the answer, please; the number alone is enough.

VLLFLAFVVFLLVTL	0.4
FLLVTLAILTALRLC	1.2
AFVVFLLVTLAILTA	0.4
LVTLAILTALRLCAY	0.4

Attention now turns to another entry.
Query block: Recorded Binding of serum London to looped/cyclic peptides of protein E of SARS-CoV Urbani for `SEETGTLIVNSVLLF` , please?
Result block: 0.5
